# Test system: LOX IMVI melanoma
# PROTOCOL NOTES: NCI tumour cell line growth inhibition, 48 h
METRIC NAME: TGI (µM)
Kindly provide the numeric value in µM only, without the unit symbol.

Sure, the documented TGI for C=C1C(=O)OC2CC(C)C3CC(O)OC(OCC)C3(C)CC12 (stereo not given) is 17.4

Sure, the documented TGI for CCCCCCCCNCCC[C@@H](C)[C@H]1CC[C@H]2[C@@H]3[C@H](OCCCN)C[C@H]4C[C@H](OCCCN)CC[C@]4(C)[C@H]3C[C@H](OCCCN)[C@]12C is 3.54

* * *

# System: U251 CNS
# PROTOCOL NOTES: NCI tumour cell line growth inhibition, 48 h
Provide the recorded TGI for the entries that follow.

Observed TGI, U251 CNS, Nc1nc(Cl)cc(NC23CC4CC(CC(C4)C2)C3)n1 : > 100 µM

Observed TGI, U251 CNS, c1ccc(-c2nc(N3CCOCC3)c3c4c(sc3n2)CCCCCC4)nc1 : 17 µM

Observed TGI, U251 CNS, O=S(=O)(NCn1ccc2ccccc21)c1ccccc1 : > 100 µM

Observed TGI, U251 CNS, Cc1ccc(S(=O)(=O)c2ccccc2[N+](=O)[O-])cc1 : > 100 µM

Observed TGI, U251 CNS, NCC(O)CSCc1ccc(Cl)cc1 (configuration not stated) : > 100 µM

Observed TGI, U251 CNS, CCN(c1cc(-c2ccc(CN3CCOCC3)cc2)cc(C(=O)NCc2c(C)cc(C)[nH]c2=O)c1C)C1CCOCC1 : > 81 µM

Observed TGI, U251 CNS, OCc1ccc(-c2cscc2-c2ccc(CO)o2)o1 : > 100 µM
